Test system: K86415-001-R-J1-PDC complex spheroids, viability;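 note: spheroids exposed to agents for seven days before readout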
Experiment: Anticancer human tumor K86415-001-R-J1-PDC patient-derived lung adenocarcinoma cell line growth inhibition [RAS]
Details: second compound 0.000949 µM; first compound 0.00316 µM; stronger effect = lower value
Excerpt: RAS pathway inhibitors in Combinations in Complex Spheroids A high-throughput screen of multi-cell type tumor spheroids was designed to identify active combinations of RAS pathway inhibitors and targeted small molecules. Complex spheroids include a stromal component modeled by human endothelial cells (HUVEC) and fibroblasts modeled by human mesenchymal stem cells (MSCs). […] Compounds. […] If the clinical Cmax for an agent had not been determined, the highest concentration tested was 10 microM. […]
The label Met is reserved for viability, T/C strictly under 40%; Not met covers values equal to or above it.

Some solved entries appear below for comparison.
C=CC(=O)Nc1cc(Nc2nccc(-c3cn(C)c4ccccc34)n2)c(OC)cc1N(C)CCN(C)C + CCn1c(-c2cccnc2C(C)OC)c2c3cc(ccc31)N1CCOC(CC(NC(=O)C(C(C)C)N(C)C(=O)C3(F)CCN(C(=O)C#CC(C)(C)N(C)C)CC3)C(=O)N3CCCC(N3)C(=O)OCC(C)(C)C2)C1 | Met
O=C(c1ccc(F)c(F)c1Nc1ccc(I)cc1F)N1CC(O)([C@@H]2CCCCN2)C1 + CCn1c(-c2cc(N3CCN(C)CC3)cnc2C(C)OC)c2c3cc(ccc31)-c1csc(n1)CC(NC(=O)C1CC1C)C(=O)N1CCCC(N1)C(=O)OCC(C)(C)C2 | Not met

Problem: is_below(viability, T/C, 40%) for C=CC(=O)Nc1cc(Nc2nccc(-c3cn(C)c4ccccc34)n2)c(OC)cc1N(C)CCN(C)C + CCn1c(-c2cc(N3CCN(C)CC3)cnc2C(C)OC)c2c3cc(ccc31)-c1csc(n1)CC(NC(=O)C1CC1C)C(=O)N1CCCC(N1)C(=O)OCC(C)(C)C2 ?
Solution: Not met

Problem: In plain terms, does C=CC(=O)N1CCN(c2nc(OCC3CCCN3C)nc3c(F)c(-c4nc(N)cc(C)c4C(F)(F)F)c(Cl)cc23)C(C)C1 (stereo not drawn) + CCn1c(-c2cc(N3CCN(C)CC3)cnc2C(C)OC)c2c3cc(ccc31)-c1csc(n1)CC(NC(=O)C1CC1C)C(=O)N1CCCC(N1)C(=O)OCC(C)(C)C2 come in under 40% for viability, T/C?
Solution: Met

Problem: Record C=CC(=O)N1CCN(c2nc(OCC3CCCN3C)nc3c(F)c(-c4nc(N)cc(C)c4C(F)(F)F)c(Cl)cc23)C(C)C1 (stereo not drawn) + CCn1c(-c2cccnc2C(C)OC)c2c3cc(ccc31)N1CCOC(CC(NC(=O)C(C(C)C)N(C)C(=O)C3(F)CCN(C(=O)C#CC(C)(C)N(C)C)CC3)C(=O)N3CCCC(N3)C(=O)OCC(C)(C)C2)C1 : is its viability, T/C strictly below 40%?
Solution: Met

Problem: Report whether reported viability, T/C is lower than 40% (strictly) for CCN1CCN(Cc2ccc(Nc3ncc(F)c(-c4cc(F)c5nc(C)n(C(C)C)c5c4)n3)nc2)CC1 + CCn1c(-c2cc(N3CCN(C)CC3)cnc2C(C)OC)c2c3cc(ccc31)-c1csc(n1)CC(NC(=O)C1CC1C)C(=O)N1CCCC(N1)C(=O)OCC(C)(C)C2
Solution: Not met

Problem: In plain terms, does Nc1ccn(C2OC(CO)C(O)C2(F)F)c(=O)n1 (stereo not drawn) + CCn1c(-c2cccnc2C(C)OC)c2c3cc(ccc31)N1CCOC(CC(NC(=O)C(C(C)C)N(C)C(=O)C3(F)CCN(C(=O)C#CC(C)(C)N(C)C)CC3)C(=O)N3CCCC(N3)C(=O)OCC(C)(C)C2)C1 come in under 40% for viability, T/C?
Solution: Met

Problem: hey, is viability, T/C for CC(C)n1nc(-c2ccc3oc(N)nc3c2)c2c(N)ncnc21 + CCn1c(-c2cccnc2C(C)OC)c2c3cc(ccc31)N1CCOC(CC(NC(=O)C(C(C)C)N(C)C(=O)C3(F)CCN(C(=O)C#CC(C)(C)N(C)C)CC3)C(=O)N3CCCC(N3)C(=O)OCC(C)(C)C2)C1 lower than 40% or not?
Solution: Met
